Cited source: patent US10961222B2

- target.or.test.system: U87-MG cell line of overexpressed mutant IDH2 (R140Q) (Homo sapiens, UniProt P48735, R140Q)
- Construct: expressed in transfected cells
- Sequence (P48735 40-452 R140Q): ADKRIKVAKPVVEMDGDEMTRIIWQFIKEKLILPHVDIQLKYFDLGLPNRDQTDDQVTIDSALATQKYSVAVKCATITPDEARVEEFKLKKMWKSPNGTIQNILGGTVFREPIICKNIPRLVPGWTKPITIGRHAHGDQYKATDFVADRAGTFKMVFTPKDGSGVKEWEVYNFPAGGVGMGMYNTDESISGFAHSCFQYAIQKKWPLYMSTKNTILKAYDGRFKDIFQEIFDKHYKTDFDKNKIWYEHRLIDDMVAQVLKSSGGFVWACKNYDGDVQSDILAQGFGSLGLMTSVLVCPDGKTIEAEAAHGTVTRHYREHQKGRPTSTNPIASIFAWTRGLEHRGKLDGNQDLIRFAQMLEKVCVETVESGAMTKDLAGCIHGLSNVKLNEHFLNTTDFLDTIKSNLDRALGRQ
- measurement.protocol: Cell activity in vitro: 2-HG in culture supernatant of U87-MG (IDH2-R140Q) cells by LC-MS/MS
- Type: cell-based
- study.conditions: U87-MG (IDH2-R140Q) cells, 72 hours, 2-HG in supernatant; read-out: IC50 (2-HG remaining compared to untreated)
pIC50: −log10 of the molar value.
parameter: pIC50

>  <molecule>
FC1(F)CCN(c2nc(Nc3ccnc(C(F)(F)F)c3)nc(-c3cccc(C(F)(F)F)n3)n2)CC1 [Example 1]

>  <pIC50>
7.82

$$$$
>  <molecule>
FC1(F)CN(c2nc(Nc3ccnc(C(F)(F)F)c3)nc(-c3cccc(C(F)(F)F)n3)n2)C1 [Example 35]

>  <pIC50>
8.01

$$$$
>  <molecule>
FC(F)(F)c1cc(Nc2nc(-c3cccc(C(F)(F)F)n3)nc(N3CC(F)(F)C(F)(F)C3)n2)ccn1 [Example 55]

>  <pIC50>
7.82

$$$$
>  <molecule>
FC(F)(F)c1cc(Nc2nc(OCC(F)(F)C(F)(F)F)nc(-c3cccc(C(F)(F)F)n3)n2)ccn1 [Example 45]

>  <pIC50>
7.99

$$$$

[a] FC(F)(F)c1cc(Nc2nc(-c3cccc(C(F)(F)F)n3)nc(N3CCOCC3)n2)ccn1 [Example 4]
[b] CC(C)Oc1nc(Nc2ccnc(C(F)(F)F)c2)nc(-c2cccc(C(F)(F)F)n2)n1 [Example 42]
[c] CCN(CC(C)(C)O)c1nc(Nc2ccnc(C(F)(F)F)c2)nc(-c2cccc(C(F)(F)F)n2)n1 [Example 31]
Input: Write the entries in order, lowest recorded pIC50 first. Lab note: record answer as labels in requested order.
Output: c, a, b

[1] CC(Oc1nc(Nc2ccnc(C(F)(F)F)c2)nc(-c2cccc(C(F)(F)F)n2)n1)C(F)(F)F (stereo not drawn) [Example 44]
[2] OC1(C(F)(F)F)CN(c2nc(Nc3ccnc(C(F)(F)F)c3)nc(-c3cccc(C(F)(F)F)n3)n2)C1 [Example 34]
[3] CC1(O)CN(c2nc(Nc3ccnc(C(F)(F)F)c3)nc(-c3cccc(C(F)(F)F)n3)n2)C1 [Example 33]
Input: Hey, quick one: sort these by pIC50, largest value first please. Lab note: record answer as labels in requested order.
Output: 1, 3, 2

[A] OC1CCCN(c2nc(Nc3ccnc(C(F)(F)F)c3)nc(-c3cccc(C(F)(F)F)n3)n2)C1 (stereo not drawn) [Example 3]
[B] CC(C)(O)CCc1nc(Nc2ccnc(C(F)(F)F)c2)nc(-c2cccc(C(F)(F)F)n2)n1 [Example 41]
Input: Just tell me: smaller pIC50 value, A or B ? Answer = label.
Output: A
